- testDetails: Plasma pharmacokinetics of trametinib and dabrafenib at steady state (LC-MS/MS, noncompartmental)
- Assay type: in vivo, human
- runConditions: human, plasma, oral, trametinib 2 mg QD, Cycle 2 Day 7 with AMG 232, Arm 2 cohort 3 (AMG 232 240 mg); geometric mean (CV%)
reportedMetric: Cmax (µg/mL)

| structureNotation | reportedMetric | observedResult |
| --- | --- | --- |
| CC(=O)Nc1cccc(-n2c(=O)n(C3CC3)c(=O)c3c(Nc4ccc(I)cc4F)n(C)c(=O)c(C)c32)c1 | Cmax | 0.0243 |

---

- testDetails: Plasma pharmacokinetics of AMG 232 at steady state (LC-MS/MS, noncompartmental)
- Type: in vivo, human
- runConditions: human, plasma, oral, 180 mg, Cycle 1 Day 7, AMG 232 monotherapy, Arm 2, 180 mg; geometric mean (CV%)
reportedMetric: Cmax (ng/mL)

| structureNotation | reportedMetric | observedResult |
| --- | --- | --- |
| CC(C)[C@@H](CS(=O)(=O)C(C)C)N1C(=O)[C@@](C)(CC(=O)O)C[C@H](c2cccc(Cl)c2)[C@H]1c1ccc(Cl)cc1 | Cmax | 1250 |

---

- testDetails: Plasma pharmacokinetics of trametinib and dabrafenib at steady state (LC-MS/MS, noncompartmental)
- Assay type: in vivo, human
- runConditions: human, plasma, oral, trametinib 2 mg QD, Cycle 1 Day 21 without AMG 232, Arm 1 cohort 2 (AMG 232 180 mg); median (min-max); read-out: tmax

| structureNotation | Tmax (h) |
| --- | --- |
| CC(=O)Nc1cccc(-n2c(=O)n(C3CC3)c(=O)c3c(Nc4ccc(I)cc4F)n(C)c(=O)c(C)c32)c1 | 2 |

---

- testDetails: Plasma pharmacokinetics of trametinib and dabrafenib at steady state (LC-MS/MS, noncompartmental)
- Type: in vivo, human
- runConditions: human, plasma, oral, 2 mg, trametinib 2 mg QD, Cycle 1 Day 21 without AMG 232, Arm 2 cohort 1 (AMG 232 120 mg); geometric mean (CV%); read-out: AUC24hr
reportedMetric: AUC(0-t) (ng·h/mL)

| structureNotation | unitAbbreviation | observedResult |
| --- | --- | --- |
| CC(=O)Nc1cccc(-n2c(=O)n(C3CC3)c(=O)c3c(Nc4ccc(I)cc4F)n(C)c(=O)c(C)c32)c1 | ng·h/mL | 370 |

---

- testDetails: Plasma pharmacokinetics of AMG 232 at steady state (LC-MS/MS, noncompartmental)
- Type: in vivo, human
- runConditions: human, plasma, oral, 240 mg, Cycle 1 Day 7, AMG 232 monotherapy, Arm 2, 240 mg; geometric mean (CV%); read-out: AUC24hr

| structureNotation | AUC(0-t) (ng·h/mL) |
| --- | --- |
| CC(C)[C@@H](CS(=O)(=O)C(C)C)N1C(=O)[C@@](C)(CC(=O)O)C[C@H](c2cccc(Cl)c2)[C@H]1c1ccc(Cl)cc1 | 21100 |

---

- testDetails: Plasma pharmacokinetics of trametinib and dabrafenib at steady state (LC-MS/MS, noncompartmental)
- Type: in vivo, human
- runConditions: human, plasma, oral, trametinib 2 mg QD, Cycle 2 Day 7 with AMG 232, Arm 2 cohort 3 (AMG 232 240 mg); median (min-max); read-out: tmax

| structureNotation | Tmax, h |
| --- | --- |
| CC(=O)Nc1cccc(-n2c(=O)n(C3CC3)c(=O)c3c(Nc4ccc(I)cc4F)n(C)c(=O)c(C)c32)c1 | 2 |

---

- testDetails: Plasma pharmacokinetics of trametinib and dabrafenib at steady state (LC-MS/MS, noncompartmental)
- Assay type: in vivo, human
- runConditions: human, plasma, oral, trametinib, cycle 2, day 7, with AMG 232 co-administration, across dose cohorts; read-out: median tmax

| molecule | Tmax |
| --- | --- |
| CC(=O)Nc1cccc(-n2c(=O)n(C3CC3)c(=O)c3c(Nc4ccc(I)cc4F)n(C)c(=O)c(C)c32)c1 [trametinib] | 1 to 3 h |

---

- testDetails: Plasma pharmacokinetics of AMG 232 at steady state (LC-MS/MS, noncompartmental)
- Assay type: in vivo, human
- runConditions: human, plasma, oral, 120 mg, Cycle 1 Day 7, AMG 232 monotherapy, Arm 2, 120 mg; geometric mean (CV%); read-out: AUC24hr
reportedMetric: AUC(0-t) (ng·h/mL)

| structureNotation | observedResult |
| --- | --- |
| CC(C)[C@@H](CS(=O)(=O)C(C)C)N1C(=O)[C@@](C)(CC(=O)O)C[C@H](c2cccc(Cl)c2)[C@H]1c1ccc(Cl)cc1 | 9810 |

---

- testDetails: Plasma pharmacokinetics of trametinib and dabrafenib at steady state (LC-MS/MS, noncompartmental)
- Assay type: in vivo, human
- runConditions: human, plasma, oral, trametinib 2 mg QD, Cycle 2 Day 7 with AMG 232, Arm 1 cohort 2 (AMG 232 180 mg); geometric mean (CV%)

| structureNotation | Cmax (µg/mL) |
| --- | --- |
| CC(=O)Nc1cccc(-n2c(=O)n(C3CC3)c(=O)c3c(Nc4ccc(I)cc4F)n(C)c(=O)c(C)c32)c1 | 0.0259 |

---

- testDetails: Plasma pharmacokinetics of trametinib and dabrafenib at steady state (LC-MS/MS, noncompartmental)
- Format: in vivo, human
- runConditions: human, plasma, oral, dabrafenib 150 mg BID, Cycle 2 Day 7, T + D with AMG 232, Arm 1 cohort 2 (AMG 232 180 mg); geometric mean (CV%); read-out: AUC6hr

| molecule | unitAbbreviation | AUC(0-t) |
| --- | --- | --- |
| CC(C)(C)c1nc(-c2cccc(NS(=O)(=O)c3c(F)cccc3F)c2F)c(-c2ccnc(N)n2)s1 [dabrafenib] | ng·h/mL | 4910 |

---

- testDetails: Plasma pharmacokinetics of trametinib and dabrafenib at steady state (LC-MS/MS, noncompartmental)
- Format: in vivo, human
- runConditions: human, plasma, oral, trametinib 2 mg QD, Cycle 1 Day 21 without AMG 232, Arm 1 cohort 1 (AMG 232 120 mg); geometric mean (CV%); read-out: AUC24hr
- Description: We, therefore, collected samples on these days to perform dabrafenib and trametinib PK analysis. We determined plasma concentrations of trametinib, dabrafenib, and hydroxy- and desmethyl-dabrafenib metabolites with a validated assay using liquid-liquid extraction of samples spiked with the stable isotope internal standards for each analyte followed by analysis using LC-MS/MS detection. […] We calculated concentrations using a linear regression calibration model with a 1/x^2 weighting factor. […]

| structureNotation | unitAbbreviation | AUC(0-t) |
| --- | --- | --- |
| CC(=O)Nc1cccc(-n2c(=O)n(C3CC3)c(=O)c3c(Nc4ccc(I)cc4F)n(C)c(=O)c(C)c32)c1 | ng·h/mL | 326 |

---

- testDetails: Plasma pharmacokinetics of trametinib and dabrafenib at steady state (LC-MS/MS, noncompartmental)
- Format: in vivo, human
- runConditions: human, plasma, oral, trametinib 2 mg QD, Cycle 1 Day 21 without AMG 232, Arm 1 cohort 2 (AMG 232 180 mg); geometric mean (CV%)

| structureNotation | unitAbbreviation | Cmax |
| --- | --- | --- |
| CC(=O)Nc1cccc(-n2c(=O)n(C3CC3)c(=O)c3c(Nc4ccc(I)cc4F)n(C)c(=O)c(C)c32)c1 | µg/mL | 0.0241 |

---

- testDetails: Plasma pharmacokinetics of trametinib and dabrafenib at steady state (LC-MS/MS, noncompartmental)
- Format: in vivo, human
- runConditions: human, plasma, oral, trametinib 2 mg QD, Cycle 1 Day 21 without AMG 232, Arm 1 cohort 2 (AMG 232 180 mg); geometric mean (CV%); read-out: AUC24hr
reportedMetric: AUC(0-t) (ng·h/mL)

| structureNotation | observedResult |
| --- | --- |
| CC(=O)Nc1cccc(-n2c(=O)n(C3CC3)c(=O)c3c(Nc4ccc(I)cc4F)n(C)c(=O)c(C)c32)c1 | 362 |

---

- testDetails: Plasma pharmacokinetics of AMG 232 at steady state (LC-MS/MS, noncompartmental)
- Assay type: in vivo, human
- runConditions: human, plasma, oral, 180 mg, Cycle 1 Day 7, AMG 232 monotherapy, Arm 1, 180 mg; geometric mean (CV%); read-out: AUC24hr
reportedMetric: AUC(0-t) (ng·h/mL)

| structureNotation | reportedMetric | observedResult |
| --- | --- | --- |
| CC(C)[C@@H](CS(=O)(=O)C(C)C)N1C(=O)[C@@](C)(CC(=O)O)C[C@H](c2cccc(Cl)c2)[C@H]1c1ccc(Cl)cc1 | AUC(0-t) | 5890 |

---

- testDetails: Plasma pharmacokinetics of AMG 232 at steady state (LC-MS/MS, noncompartmental)
- Assay type: in vivo, human
- runConditions: human, plasma, oral, 120 mg, Cycle 2 Day 7, co-administered with T + D, Arm 1, 120 mg; geometric mean (CV%)

| structureNotation | unitAbbreviation | Cmax |
| --- | --- | --- |
| CC(C)[C@@H](CS(=O)(=O)C(C)C)N1C(=O)[C@@](C)(CC(=O)O)C[C@H](c2cccc(Cl)c2)[C@H]1c1ccc(Cl)cc1 | ng/mL | 392 |
